- target: T1, MAdCAM-IgG1 Fc fusion protein (human)
- T1 construct: Made in CHO-DHFR cells; also called MAdCAM-IgFc
- T1 sequence (chain, as listed by the source limits assumed): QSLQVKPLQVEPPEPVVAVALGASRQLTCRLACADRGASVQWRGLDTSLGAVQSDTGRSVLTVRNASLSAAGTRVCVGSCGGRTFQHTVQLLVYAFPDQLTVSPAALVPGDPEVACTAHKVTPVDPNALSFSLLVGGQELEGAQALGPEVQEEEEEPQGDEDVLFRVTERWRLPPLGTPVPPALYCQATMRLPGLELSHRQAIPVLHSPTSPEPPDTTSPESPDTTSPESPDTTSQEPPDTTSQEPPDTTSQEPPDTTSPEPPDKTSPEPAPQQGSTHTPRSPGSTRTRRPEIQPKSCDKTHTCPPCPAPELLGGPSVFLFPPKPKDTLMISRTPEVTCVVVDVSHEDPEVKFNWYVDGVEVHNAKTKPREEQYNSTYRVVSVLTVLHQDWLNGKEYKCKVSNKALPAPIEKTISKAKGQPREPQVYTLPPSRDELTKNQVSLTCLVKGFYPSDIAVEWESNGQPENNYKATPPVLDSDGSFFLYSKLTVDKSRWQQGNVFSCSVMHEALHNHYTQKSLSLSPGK
- experimentNotes: SPR BIAcore protocol 1: mAb captured, MAdCAM-IgG1 Fc injected
# strict inequality: Kd < 0.09 nM yields class 1, everything else yields class 0

input: Field: below-cutoff. Rule: recorded Kd strictly less than 0.09 nM. Subject: anti-MAdCAM monoclonal antibody 6.73.2 (antibody, human IgG4, kappa, V domains shown, human IgG4 kappa from hybridoma 6.73.2) VH: EVQLLESGGDLVQPGGSLRLSCAASGFTFRSYAMNWVRQAPGKGLEWVSVISGRGGTTYYADSVKGRFTISRDNSKNTLYLQMNSLRAEDAAVYYCAKIAVAGEGLYYYYGMDVWGQGTTVTVSS VL: DIQMTQSPSSLSASVGDRVTFTCRASQNITNYLNWYQQKPGKAPKLLIYAASSLPRGVPSRFRGSGSGTDFTLTISSLQPEDFATYYCQQSYSNPPECGFGQGTTLDIKR
output: class 0

input: Consider anti-MAdCAM monoclonal antibody 7.26.4 (antibody, human IgG2, kappa, V domains shown, human IgG2 kappa from hybridoma 7.26.4) VH: QVQLVQSGAEVKKPGASVKVSCEASGYTFTSYGIDWVRQAPGQGLEWMGWISVYSGNTNYAQKLQGRVTMSTDTSTSTAYMELRSLRSDDTAVYYCAREGSSSSGDYYYGMDVWGQGTTVTVSS VL: DIVMTQTPLSLSVTPGQPASISCKSNQSLLYSDGKTYLFWYLQKPGQPPQLLIYEVSNRFSGVPDRFSGSGSGTDFTLKISRVEAEDVGVYYCMQSIQLPWTFGQGTKVEIKR . Does its Kd lie strictly below 0.09 nM?
output: class 0

input: Check if Kd falls below 0.09 nM for anti-MAdCAM monoclonal antibody 9.8.2 (antibody, human IgG4, kappa, V domains shown, human IgG4 kappa from hybridoma 9.8.2) VH: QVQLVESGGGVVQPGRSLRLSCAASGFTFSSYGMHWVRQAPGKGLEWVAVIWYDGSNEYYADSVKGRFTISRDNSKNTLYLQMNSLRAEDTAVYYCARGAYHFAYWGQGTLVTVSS VL: DIQMTQSPSSLSASVGDRVTITCQASQDISNYLNWYQQKPGKAPKLLIYDASNLETGVPSRFSGSGSGTDFTFTISSLQPEDIATYSCQHSDNLSITFGQGTRLEIKR .
output: class 0

input: Decide: Kd of anti-MAdCAM monoclonal antibody 6.77.1 (antibody, human IgG4, kappa, V domains shown, human IgG4 kappa from hybridoma 6.77.1) VH: EVQLVESGGGLVKPGGSLRLSCAASGFTFSSYSMNWVRQAPGKGLEWVSSISSSSSYIYYADSVKGRFTISRDNAKNSLYLQMNSLRAEDTAVYYCARDGYSSGWSYYYYYGMDVWGQGTTVTVSS VL: DIVMTQTPLSLSVTPGQPASISCNSSQSLLLSDGKTYLNWYLQKPGQPPQLLIYEVSNRFSGVPDRFSGSGSGTDFTLKISRVEAEDVGVYSCMQSIQLMCSFGQGTKLEIKR strictly below 0.09 nM?
output: class 1

input: # TODO verify Kd < 0.09 nM strictly for this binder: anti-MAdCAM monoclonal antibody 6.34.2 (antibody, human IgG4, kappa, V domains shown, human IgG4 kappa from hybridoma 6.34.2) VH: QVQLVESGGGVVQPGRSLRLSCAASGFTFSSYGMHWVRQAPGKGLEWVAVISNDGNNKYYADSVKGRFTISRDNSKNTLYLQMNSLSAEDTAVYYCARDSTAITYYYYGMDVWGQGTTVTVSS VL: DIQMTQSPSSLSASVGDRVTITCRASQNISSYLNWFQQKPGKAPKLLIYAASGLKRGVPSRFSGSGSGTDFTLTIRTLQPDDFATYSCHQSYSLPFTFGPGTKVDIKR
output: class 1

input: Dear colleague, could you confirm whether Kd of anti-MAdCAM monoclonal antibody 6.14.2 (antibody, human IgG4, kappa, V domains shown, human IgG4 kappa from hybridoma 6.14.2) VH: EVQLLESGGGLVQPGGSLRLSCAASGLTFNNSAMTWVRQAPGKGLEWVSTTSGSGGTTYYADSVKGRFTISRDSPKNTLYLQMNSLRAEDTAVYYCAARGYSYGTTPYEYWGQGTLVTVSS VL: DIQMTQSPSSLSASVGDRVTITCRASRSISSYLNWYQQKPGKAPKVLIFFVSSLQSGVPSRFSGSGSGTDFTLTISSLQPEDFATYYCQQNYIPPITFGQGTRLEIRR falls below 0.09 nM? Thanks.
output: class 1

input: Quick check: does anti-MAdCAM monoclonal antibody 6.22.2 (antibody, human IgG4, kappa, V domains shown, human IgG4 kappa from hybridoma 6.22.2) VH: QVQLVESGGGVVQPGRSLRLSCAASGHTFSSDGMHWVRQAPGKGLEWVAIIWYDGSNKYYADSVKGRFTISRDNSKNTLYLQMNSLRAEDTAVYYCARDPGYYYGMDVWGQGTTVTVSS VL: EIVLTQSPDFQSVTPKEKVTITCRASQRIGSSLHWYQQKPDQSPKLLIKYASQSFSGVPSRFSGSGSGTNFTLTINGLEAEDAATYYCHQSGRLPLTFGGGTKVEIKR have Kd under 0.09 nM?
output: class 1
